tested on: SK-OV-3; test: NCI tumour cell line growth inhibition, 48 h
Calls of active or inactive are those of the source. No stated cut-off is given here; in the data, active = GI50 up to about 1.1 µM and inactive = higher.
Overview of recorded GI50 for various compounds
value kind: GI50

In [3]: df
Out[3]:
                                    compound           test_value
 0  COc1ccc(/C(=C/n2ccnc2)C(O)c2ccc(OC)c(OC)c2)cc1OC (stereo unspecified)  > 100 µM (inactive)
 1  NCCN1C(=O)C2C3c4ccccc4C(c4ccccc43)C2C1=O (stereo unspecified)  > 100 µM (inactive)
 2       COc1ccccc1/C=N/C12CC3CC(CC(C3)C1)C2  > 100 µM (inactive)
 3  O=C1/C(=C/Cc2ccco2)N=C(c2ccccc2)N1c1nc2ccc(Sc3ccccc3)cc2[nH]1   25.9 µM (inactive)
 4  CC(=O)OCC12CC(CC1OC(C)=O)c1ccccc12 (stereo unspecified)  > 100 µM (inactive)
 5  COC(=O)C1[C@H](C(=O)OC)C1(Br)CBr (stereo partly specified)  > 100 µM (inactive)
 6       O=C1C/C(=C\c2ccccc2)C(=O)c2ccccc2N1   35.2 µM (inactive)
 7  CCCCN(CC)CC(C(C)=O)c1c(O)c2ccccc2oc1=O (stereo unspecified)  > 100 µM (inactive)
 8      O=C(c1ccccc1)c1nnc(C(=O)c2ccccc2)nn1    278 µM (inactive)
 9  N#CC1(c2ccccc2)CCN(C2(c3ccccc3)CCCCC2)CC1  > 100 µM (inactive)
10  O=C(/C=C/c1ccc(O)c(O)c1)O[C@H]1CCCC[C@@H]1OC(=O)/C=C/c1ccc(O)c(O)c1   15.8 µM (inactive)
